- System: Streptococcus sp. 'group B'
- ASSAY PROTOCOL: Antimicrobial activity against Group B streptococcus serotype VI R6 harboring F395L, V405A, R433H, H438Y, A374V and G648A mutations in PBP 2X and T567I mutation in PBP 2B by broth microdilution method
- Assay type: functional

{"MOLECULAR STRING": "CN(C)CCn1nnnc1SCC1=C(C(=O)O)N2C(=O)[C@@H](NC(=O)Cc3csc(N)n3)[C@H]2SC1", "TARGET ENTITY": "Streptococcus sp. 'group B'", "MIC": "4 µg/mL"}
{"MOLECULAR STRING": "CC1(C)S[C@@H]2[C@H](NC(=O)Cc3ccccc3)C(=O)N2[C@H]1C(=O)O", "TARGET ENTITY": "Streptococcus sp. 'group B'", "MIC": "0.5 µg/mL"}
{"MOLECULAR STRING": "CO/N=C(\\C(=O)N[C@@H]1C(=O)N2C(C(=O)OCOC(=O)C(C)(C)C)=C(/C=C\\c3scnc3C)CS[C@H]12)c1csc(N)n1", "TARGET ENTITY": "Streptococcus sp. 'group B'", "MIC": "0.25 µg/mL"}

* * *

- System: Streptococcus sp. 'group B'
- ASSAY PROTOCOL: Antimicrobial activity against Group B streptococcus serotype VI R6 harboring F395L, V405A, R433H, H438Y, A374V and G648A mutations in PBP 2X and T567I mutation in PBP 2B by broth microdilution method
- Type: functional

{"MOLECULE": "CC1(C)S[C@@H]2[C@H](NC(=O)[C@H](N)c3ccccc3)C(=O)N2[C@H]1C(=O)O [AMPICILLIN]", "TARGET ENTITY": "Streptococcus sp. 'group B'", "VALUE MODIFIER": "=", "MIC (µg/mL)": 0.5}
{"MOLECULE": "CO/N=C(\\C(=O)N[C@@H]1C(=O)N2C(C(=O)[O-])=C(C[N+]3(C)CCCC3)CS[C@H]12)c1csc(N)n1 [CEFEPIME]", "TARGET ENTITY": "Streptococcus sp. 'group B'", "VALUE MODIFIER": "=", "MIC (µg/mL)": 1}
{"MOLECULE": "CCC[C@@H]1C[C@@H](C(=O)N[C@@H]([C@H]2O[C@H](SC)[C@H](O)[C@@H](O)[C@H]2O)[C@H](C)Cl)N(C)C1 [CLINDAMYCIN]", "TARGET ENTITY": "Streptococcus sp. 'group B'", "VALUE MODIFIER": "≤", "MIC (µg/mL)": 0.12}
{"MOLECULE": "CO/N=C(\\C(=O)N[C@@H]1C(=O)N2C(C(=O)O)=C(COC(C)=O)CS[C@H]12)c1csc(N)n1 [CEFOTAXIME]", "TARGET ENTITY": "Streptococcus sp. 'group B'", "VALUE MODIFIER": "=", "MIC (µg/mL)": 0.5}
{"MOLECULE": "CO/N=C(\\C(=O)N[C@@H]1C(=O)N2C(C(=O)[O-])=C(C[n+]3ccn4ncccc43)CS[C@H]12)c1nsc(N)n1 [CEFOZOPRAN]", "TARGET ENTITY": "Streptococcus sp. 'group B'", "VALUE MODIFIER": "=", "MIC (µg/mL)": 0.5}
{"MOLECULE": "CC[C@H]1OC(=O)[C@H](C)[C@@H](O[C@H]2C[C@@](C)(OC)[C@@H](O)[C@H](C)O2)[C@H](C)[C@@H](O[C@@H]2O[C@H](C)C[C@H](N(C)C)[C@H]2O)[C@](C)(OC)C[C@@H](C)C(=O)[C@H](C)[C@@H](O)[C@]1(C)O [CLARITHROMYCIN]", "TARGET ENTITY": "Streptococcus sp. 'group B'", "VALUE MODIFIER": "≤", "MIC (µg/mL)": 0.12}
{"MOLECULE": "C[C@H]1COc2c(N3CCN(C)CC3)c(F)cc3c(=O)c(C(=O)O)cn1c23.C[C@H]1COc2c(N3CCN(C)CC3)c(F)cc3c(=O)c(C(=O)O)cn1c23.O [LEVOFLOXACIN]", "TARGET ENTITY": "Streptococcus sp. 'group B'", "VALUE MODIFIER": "=", "MIC (µg/mL)": 4}
{"MOLECULE": "C=CC1=C(C(=O)O)N2C(=O)[C@@H](NC(=O)/C(=N\\OCC(=O)O)c3csc(N)n3)[C@H]2SC1 [CEFIXIME]", "TARGET ENTITY": "Streptococcus sp. 'group B'", "VALUE MODIFIER": ">", "MIC (µg/mL)": 1}
{"MOLECULE": "C[C@@H](O)[C@H]1C(=O)N2C(C(=O)O)=C(S[C@@H]3CN[C@H](C(=O)N(C)C)C3)[C@H](C)[C@H]12 [MEROPENEM]", "TARGET ENTITY": "Streptococcus sp. 'group B'", "VALUE MODIFIER": "=", "MIC (µg/mL)": 0.5}
{"MOLECULE": "CN(C)[C@@H]1C(O)=C(C(N)=O)C(=O)[C@@]2(O)C(O)=C3C(=O)c4c(O)cccc4[C@@](C)(O)[C@H]3C[C@@H]12 [TETRACYCLINE]", "TARGET ENTITY": "Streptococcus sp. 'group B'", "VALUE MODIFIER": ">", "MIC (µg/mL)": 4}
{"MOLECULE": "CC[C@H]1OC(=O)[C@H](C)[C@@H](O[C@H]2C[C@@](C)(OC)[C@@H](O)[C@H](C)O2)[C@H](C)[C@@H](O[C@@H]2O[C@H](C)C[C@H](N(C)C)[C@H]2O)[C@](C)(O)C[C@@H](C)C(=O)[C@H](C)[C@@H](O)[C@]1(C)O [ERYTHROMYCIN]", "TARGET ENTITY": "Streptococcus sp. 'group B'", "VALUE MODIFIER": "≤", "MIC (µg/mL)": 0.12}
